system: Phospho-Akt(Ser473); experiment: Dose response in SKOV3 cells as determined by Western blot; assay type: cell-based; conditions: Homo sapiens, SK-OV-3, 1 hr, Phospho-Akt normalized to total Akt, read-out: Immunoblot
pEC50: −log10 of the molar value.
MEASUREMENT_NAME: pEC50

1. C=CC(=O)Nc1ccc(CCNC(=O)c2cc(-c3cnc(N)nc3)nc(N3CCOCC3)c2)cc1: ≤ 6.00
2. C=CC(=O)Nc1ccc(CC(=O)N2CCC(n3ncc4c(N5CCOCC5)nc(-c5cnc(N)nc5)nc43)CC2)cc1: 7.00 to 8.00
3. C=C(C)C(=O)CCCC(=O)N1CCN(Cc2cc3nc(-c4cccc5[nH]ncc45)nc(N4CCOCC4)c3s2)CC1: 7.00 to 8.00
4. C=CC(=O)Nc1ccc(C(=O)N2CC=C(c3cc4nc(-c5cnc(N)nc5)nc(N5CCOCC5)c4s3)CC2)cc1: ≥ 8.00
5. CC(C)=CC(=O)CCCC(=O)N1CC=C(c2cc3nc(-c4cnc(N)nc4)cc(N4CCOCC4)c3s2)CC1: 6.00 to 7.00
6. C/C=C/C(=O)CCC(=O)N1CCN(Cc2cc3nc(-c4cnc(N)nc4)nc(N4CCOCC4)c3s2)CC1: 7.00 to 8.00
7. CC(C)=CC(=O)CCCC(=O)N1CCC(c2cc3nc(-c4cnc(N)nc4)cc(N4CCOCC4)c3s2)CC1: 6.00 to 7.00
